In this section we review reported Plate 3 (% conversion) values for a set of molecules.
# System: His6-AspH315–758 (human aspartate/asparagine-β-hydroxylase, AspH) (Homo sapiens)
# Construct: N-Terminally His6-tagged human AspH315–758 (His6-AspH315–758) was produced in E. coli BL21 (DE3) cells; made in house; host or cells: E. coli BL21 (DE3), pET-28a(+) vector
# Sequence (Q12797 315-758): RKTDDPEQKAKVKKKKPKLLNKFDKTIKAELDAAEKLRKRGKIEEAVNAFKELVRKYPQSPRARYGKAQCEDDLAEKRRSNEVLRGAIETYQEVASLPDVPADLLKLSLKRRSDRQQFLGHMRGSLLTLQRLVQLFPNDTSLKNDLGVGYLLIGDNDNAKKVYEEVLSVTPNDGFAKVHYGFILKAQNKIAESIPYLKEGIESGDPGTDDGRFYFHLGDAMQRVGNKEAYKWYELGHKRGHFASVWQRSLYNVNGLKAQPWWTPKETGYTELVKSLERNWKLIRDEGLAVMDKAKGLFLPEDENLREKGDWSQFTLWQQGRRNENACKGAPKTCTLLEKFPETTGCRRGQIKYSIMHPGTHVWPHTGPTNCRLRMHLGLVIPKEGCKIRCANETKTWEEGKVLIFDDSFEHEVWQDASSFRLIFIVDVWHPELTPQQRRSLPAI
# Assay explanation: SPE-MS AspH inhibition assay (LOPAC screen at fixed 20 μM and IC50 dose-response), hydroxylation of cyclic peptide hFX-CP101–119
# Assay type: biochemical
Where a name gives a salt, the structure may show the parent alone.
Endpoint: Plate 3 (% conversion) (%)

>>> result_value("Cl.N=C(N)c1ccc(CS(=O)(=O)F)cc1")
34.27
>>> result_value("C[C@H](N)CN1CCc2ccc(Br)cc21.C[C@H](N)CN1CCc2ccc(Br)cc21.O=C(O)/C=C/C(=O)O [VER-3323 hemifumarate salt]")
21.58
>>> result_value("CCOC(=O)[N-]c1cn(N2CCOCC2)n[o+]1")
34.83
>>> result_value("COC(=O)C1=C(C)NC(C)=C(C(=O)OC)C1c1ccccc1[N+](=O)[O-]")
39.50
>>> result_value("O=C1CC[C@@]2(O)[C@H]3Cc4ccc(O)c5c4[C@@]2(CCN3CC2CC2)[C@H]1O5 [Naltrexone hydrochloride]")
34.83
